compounds and their reported IC50
testSystem: Cdk9/cyclinT1 (Homo sapiens, UniProt P50750)
Sequence (P50750 whole entry): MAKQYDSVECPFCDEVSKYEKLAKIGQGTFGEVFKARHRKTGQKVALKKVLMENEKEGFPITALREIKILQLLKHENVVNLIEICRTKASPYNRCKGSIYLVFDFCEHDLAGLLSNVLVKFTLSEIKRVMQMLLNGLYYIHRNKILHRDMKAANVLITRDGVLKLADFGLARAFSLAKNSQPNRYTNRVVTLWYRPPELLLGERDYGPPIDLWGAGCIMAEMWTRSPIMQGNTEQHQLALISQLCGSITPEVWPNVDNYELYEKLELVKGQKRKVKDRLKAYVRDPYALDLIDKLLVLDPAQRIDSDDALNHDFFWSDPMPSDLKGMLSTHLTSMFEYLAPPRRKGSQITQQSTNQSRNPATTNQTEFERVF
Sequence (O60563 whole entry partner): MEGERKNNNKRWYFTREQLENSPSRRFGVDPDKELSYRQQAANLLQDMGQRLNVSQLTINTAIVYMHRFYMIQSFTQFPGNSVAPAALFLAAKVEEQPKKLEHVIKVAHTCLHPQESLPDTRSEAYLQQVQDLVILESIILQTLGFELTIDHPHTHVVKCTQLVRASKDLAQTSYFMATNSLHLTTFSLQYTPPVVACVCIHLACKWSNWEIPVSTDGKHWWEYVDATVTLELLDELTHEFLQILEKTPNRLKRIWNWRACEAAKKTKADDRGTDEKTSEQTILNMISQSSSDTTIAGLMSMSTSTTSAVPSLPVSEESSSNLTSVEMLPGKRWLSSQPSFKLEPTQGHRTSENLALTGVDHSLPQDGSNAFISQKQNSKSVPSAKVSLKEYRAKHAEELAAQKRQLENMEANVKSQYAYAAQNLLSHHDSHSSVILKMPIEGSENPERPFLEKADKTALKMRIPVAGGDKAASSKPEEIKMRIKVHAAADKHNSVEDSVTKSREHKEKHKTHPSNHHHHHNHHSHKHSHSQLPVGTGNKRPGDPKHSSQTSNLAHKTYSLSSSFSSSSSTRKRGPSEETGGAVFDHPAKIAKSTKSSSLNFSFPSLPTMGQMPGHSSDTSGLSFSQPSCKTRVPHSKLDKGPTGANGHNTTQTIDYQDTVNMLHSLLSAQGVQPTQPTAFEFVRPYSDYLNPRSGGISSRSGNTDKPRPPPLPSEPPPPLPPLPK
assayInfo: Cdk9/CyclinT1 IMAP assay

Examples with their reported IC50 follow.
Fc1cccc(CNc2cncc(-c3cc(N[C@H]4CC[C@H](N5CCCC5)CC4)ncc3Cl)c2)c1 ... < 8 nM
NC[C@H]1CC[C@H](Nc2cc(-c3cncc(OCc4cccc(F)c4)c3)c(Cl)cn2)CC1 ... < 1 nM
O[C@H]1CC[C@H](Nc2cc(-c3cnc(F)c(NCC4CCOCC4)c3)c(Cl)cn2)CC1 ... < 8 nM

In: Consider the compound NC[C@H]1CC[C@H](Nc2cc(-c3cncc(NCc4cccc(F)c4)c3)c(Cl)cn2)CC1 and give its measured IC50.
Out: < 8 nM

###

testSystem: Cdk9/cyclinT1 (Homo sapiens, UniProt P50750)
assayInfo: Cdk9/CyclinT1 IMAP assay
pIC50: −log10 of the molar value.
measuredProperty: pIC50

O[C@H]1CCCC[C@@H]1N[C@H]1CC[C@H](Nc2cc(-c3cc(NCC4CCOCC4)cnc3Cl)c(Cl)cn2)CC1 [Compound 90] ... 8.55

(a) O[C@@H](CN[C@H]1CC[C@H](Nc2cc(-c3cc(NCC4CCOCC4)cnc3Cl)c(Cl)cn2)CC1)C(F)(F)F [Compound 73]
(b) OCCNc1cc(-c2cnc(N3CCOCC3)c(NCc3cccc(F)c3)c2)c(Cl)cn1 [Compound 37]
In: Pick one: a or b . Which has the bigger pIC50 number? Kindly state the label of the option you pick.
Out: a
(a: 8.70, b: 5.16)
